Tested on: SR leukemia
assay: NCI-60 one-dose screen, 48 h (100 = growth as untreated, 0 = no growth, -100 = all killed)
reported-conditions: 10 µM
This is part of a sample that, as a whole, favours compounds with a hit. Of some 83,000 tested, about 20% had one in any assay. The source made the active and inactive calls. How the source made its calls: active means growth percent below 10; inactive means the rest.
Answer each item with its documented growth.

Request: Send back SR leukemia growth of Clc1ccc(/C=C2\CCCC3C2=Nc2ccccc2NC3c2ccc(Cl)cc2)cc1 (stereo unspecified) only.
Response: 21.5% (inactive)

Request: Send back SR leukemia growth of CC(=O)N[C@H](C(=O)N[C@@H](CCCNC(=N)N)C(=O)N[C@@H](CCCCN)C(=O)N[C@@H](CCCNC(=N)N)C(=O)N[C@]1(C)CCC/C=C\CCC[C@@](C)(C(=O)N[C@@H](CC(C)C)C(=O)N[C@@H](CC(C)C)C(=O)N[C@@H](CCC(N)=O)C(=O)N[C@@H](CCC(=O)O)C(=O)N[C@@H](CCCNC(=N)N)C(=O)N[C@@H](CCC(=O)O)C(=O)N[C@@H](CC(C)C)C(=O)N[C@H](C(=O)N[C@@H](CCC(=O)O)C(N)=O)C(C)C)NC(=O)[C@H](CCCNC(=N)N)NC(=O)[C@H](CC(C)C)NC1=O)C(C)C only.
Response: 104% (inactive)

Request: Send back SR leukemia growth of O=C(CCCCNC(=O)c1nc(-c2ccccc2)n(-c2ccccc2)n1)NO only.
Response: 76% (inactive)

Request: Send back SR leukemia growth of CC(C)C1=C(O)C2=C(C(=O)C1=O)[C@@]1(C)CCCC(C)(C)[C@@H]1CC2 only.
Response: 48% (inactive)

Request: Send back SR leukemia growth of OCC1OC2C(NC(=S)N2c2ccccc2)C(O)C1O (stereo unspecified) only.
Response: 95.6% (inactive)

Request: Send back SR leukemia growth of O=S(=O)(Oc1ccc(-c2ccc3sccc3c2)cc1)c1ccccc1 only.
Response: 105% (inactive)

###

System: U251 CNS
assay: NCI-60 one-dose screen, 48 h (100 = growth as untreated, 0 = no growth, -100 = all killed)
reported-conditions: 10 µM
This is part of a sample that, as a whole, favours compounds with a hit. Of some 83,000 tested, about 20% had one in any assay.
Answer each item with its documented growth.
Give the value, in units of %, as a plain number.

Request: Using known records, supply growth for C#CCOc1c(OC)cc(C(=O)/C(C)=C/c2cccc(N=[N+]=[N-])c2)cc1OC
Response: 18.7

Request: Using known records, supply growth for COc1cccc(N=Nc2cccc(OC)c2)c1
Response: 79.4

Request: Using known records, supply growth for CC(=O)O[C@@]12CO[C@@H]1C[C@H](O)[C@@]1(C)C(=O)[C@H](O)C3=C(C)[C@@H](OC(=O)[C@H](O)[C@@H](NC(=O)OC(C)(C)C)c4ccccc4)C[C@@](O)([C@@H](OC(=O)c4ccccc4)C12)C3(C)C (some centres not stated)
Response: 24.2

Request: Using known records, supply growth for CCC(C)[C@H](NC(C)=O)C(=O)N[C@@H](CCCNC(=N)N)C(=O)N[C@@H](CCCCN)C(=O)N[C@@H](CC1CCC(O)CC1)C(=O)NC(C(=O)N[C@@H](CCSC)C(=O)N[C@@H](CCCNC(=N)N)C(=O)N[C@@]1(C)CCC/C=C\CCC[C@@](C)(C(=O)NC(C(=O)N[C@@H](CCC(=O)O)C(=O)N[C@@H](CC(C)C)C(=O)N[C@H](C(=O)N[C@@H](CCC(=O)O)C(N)=O)C(C)C)[C@@H](C)O)NC(=O)[C@H](CCC(N)=O)NC(=O)[C@H](CC(C)C)NC(=O)[C@H](CC(C)C)NC1=O)[C@@H](C)O (some centres not stated)
Response: 98.9

Request: Using known records, supply growth for CCN1CC(CCN2CCOCC2)C(C(c2ccccc2)c2ccccc2)C1=O (configuration not stated)
Response: 101

Request: Using known records, supply growth for CCCCN1C(=O)CC(SC2CC(=O)N(CCCC)C2=O)C1=O (configuration not stated)
Response: 107

Request: Using known records, supply growth for CC(C)C[C@H](NC(=O)Cn1cccc(CNC(=O)c2ccccc2)c1=O)B(O)O
Response: 17.2

Request: Using known records, supply growth for O=C1c2ccccc2-c2c1c1cccnc1c(=O)n2C[C@H](O)CO
Response: 46.8

Request: Using known records, supply growth for COc1cc(OC)c2c(=O)c(O)c(-c3ccccc3)oc2c1
Response: 47.1

Request: Using known records, supply growth for Nc1nccc(OCCO)n1
Response: 107

Request: Using known records, supply growth for CC(=O)N[C@H](C(=O)N[C@@H](CCCNC(=N)N)C(=O)N[C@@H](CCCCN)C(=O)N[C@@H](CCCNC(=N)N)C(=O)NC(C(=O)N[C@@H](CC(C)C)C(=O)N[C@@H](CCCNC(=N)N)C(=O)N[C@@]1(C)CCC/C=C\CCC[C@@](C)(C(=O)N[C@@H](CCCNC(=N)N)C(=O)N[C@@H](CCC(=O)O)C(=O)N[C@@H](CC(C)C)C(=O)N[C@H](C(=O)N[C@@H](CCC(=O)O)C(N)=O)C(C)C)NC(=O)[C@H](CCC(N)=O)NC(=O)[C@H](CC(C)C)NC(=O)[C@H](CC(C)C)NC1=O)[C@@H](C)O)C(C)C (some centres not stated)
Response: -35.7

Request: Using known records, supply growth for NC1=NC(c2ccc(Cl)cc2)C2=C(N1)/C(=C/c1ccc(Cl)cc1)CCC2 (configuration not stated)
Response: 13.9

###

Tested on: HS 578T breast
assay: NCI-60 one-dose screen, 48 h (100 = growth as untreated, 0 = no growth, -100 = all killed)
reported-conditions: 10 µM
Compounds without any hit were thinned out: in the full panel of roughly 83,000, 20% have a hit.
Kind request: treat 90% as inclusive, so growth at 90% or higher is condition met, anything lower is condition not met.

Request: Assess whether reported growth for COc1ccc(-c2nc(-c3nc4ccc(C)cc4[nH]3)cc3c2[nH]c2ccccc23)cc1 sits at 90% or higher.
Response: condition not met

Request: Assess whether reported growth for Cc1ccc(C(=O)/C=C/c2ccccc2)s1 sits at 90% or higher.
Response: condition met

Request: Assess whether reported growth for CCN(CCCNc1cc2c(c(N)c1S(=O)(=O)O)C(=O)c1ccccc1C2=O)c1ccccc1 sits at 90% or higher.
Response: condition met

Request: Assess whether reported growth for OC(CNc1ccnc2cc(Cl)ccc12)CNC1CCCCC1 (stereo not drawn) sits at 90% or higher.
Response: condition not met

Request: Assess whether reported growth for Cc1nn(-c2ccc(-c3ccc(OC(F)(F)F)cc3)cc2)c2nc(Cc3ccccc3)nc(N)c12 sits at 90% or higher.
Response: condition not met

Request: Assess whether reported growth for O=C(CI)OCC(COC(=O)CI)OC(=O)CI sits at 90% or higher.
Response: condition met

Request: Assess whether reported growth for COc1ccc(C(=O)N2C=Cc3ccccc3C2C#N)cc1 (stereo not drawn) sits at 90% or higher.
Response: condition met

###

Test system: MDA-MB-435 melanoma
assay: NCI-60 one-dose screen, 48 h
reported-conditions: 10 µM
The panel holds about 83,000 compounds, 20% with a hit somewhere; the sample as a whole holds those more often. Active and inactive are the calls of the source. The calls were made as follows: active = growth percent below 10; inactive = the rest.
Your reply should match one of these outcome classes. active, inactive

Request: What is the recorded call for this molecule in the test? COc1ccc(-c2cc(-c3ccc(Cl)cc3)nc(SCCCC(=O)NO)n2)cc1
Response: inactive

Request: What is the recorded call for this molecule in the test? N#Cc1c(-c2ccc(Cl)cc2)n(O)c2ccccc12
Response: active

Request: What is the recorded call for this molecule in the test? CC(C)N(CCOc1cccc(-c2nc3sccn3c2-c2ccnc(S(C)(=O)=O)n2)c1)C(C)C
Response: inactive

Request: What is the recorded call for this molecule in the test? CC(=O)N[C@H](C(=O)N[C@@H](CCCNC(=N)N)C(=O)N[C@@H](CCCCN)C(=O)N[C@@H](CCCNC(=N)N)C(=O)N[C@]1(C)CCC/C=C\CCC[C@@](C)(C(=O)N[C@@H](CC(C)C)C(=O)N[C@@H](CC(C)C)C(=O)N[C@@H](CCC(N)=O)C(=O)N[C@@H](CCC(=O)O)C(=O)N[C@@H](CCCNC(=N)N)C(=O)N[C@@H](CCC(=O)O)C(=O)N[C@@H](CC(C)C)C(=O)N[C@H](C(=O)N[C@@H](CCC(=O)O)C(N)=O)C(C)C)NC(=O)[C@H](CCCNC(=N)N)NC(=O)[C@H](CC(C)C)NC1=O)C(C)C
Response: inactive

Request: What is the recorded call for this molecule in the test? CN(C)c1ncnc2c1nnn2C1OC(CO)C(O)C1O (configuration not stated)
Response: active

Request: What is the recorded call for this molecule in the test? O=C1/C=C/[C@@H](O)[C@@H]2C[C@@H](O)C[C@H]2/C=C/CCC[C@@H](C(F)(F)F)O1
Response: inactive

Request: What is the recorded call for this molecule in the test? CNC(=O)c1cn2c3c(c(N4CCN(C)CC4)c(F)cc3c1=O)OC[C@@H]2C
Response: inactive

Request: What is the recorded call for this molecule in the test? CC1(C)N=C(N)N=C(N)N1c1cccc(C#N)c1
Response: inactive

Request: What is the recorded call for this molecule in the test? CCOc1ccccc1/C=N/N1CCCCCC1
Response: inactive

Request: What is the recorded call for this molecule in the test? COc1cc(Cc2cc(-c3ccccc3)n[nH]c2=O)cc(OC)c1OC
Response: inactive

Request: What is the recorded call for this molecule in the test? CCOC(=O)c1cc(C(=O)c2ccc(OC)c(OC)c2)n2c1ccc1ccc3cccnc3c12
Response: active

Request: What is the recorded call for this molecule in the test? CC(=O)/C(=C/c1ccc(Br)cc1)C(=O)c1ccccc1
Response: inactive

Request: What is the recorded call for this molecule in the test? Cc1ccccc1N1C(=O)c2cc(S(N)(=O)=O)c(Cl)cc2NC1C (configuration not stated)
Response: inactive

Request: What is the recorded call for this molecule in the test? COc1cc(-c2nn(-c3cccc(NC(=O)CCNc4ccc(N5CCOCC5)cc4)c3)cc2-c2ccncc2)ccc1Cl
Response: inactive

Request: What is the recorded call for this molecule in the test? CN1CCc2c(sc3nc4n(-c5ccc(Cl)cc5)c(=O)[nH]n4c(=O)c23)C1
Response: inactive

Request: What is the recorded call for this molecule in the test? CS(=O)(=O)c1nccc(-c2c(-c3cccc(OCCc4ccccc4)c3)nc3sccn23)n1
Response: inactive

Request: What is the recorded call for this molecule in the test? CNS(=O)(=O)Oc1ccc(-c2ccc3occc3c2)cc1
Response: inactive
